Measured HEMOGLOBIN by item
Species: Rattus norvegicus
Assay: DrugMatrix - Regimen: Daily Repeat
Type: toxicity, organism-based, Sprague-Dawley
Design: regimen Daily Repeat, gender Male, age 6-8 weeks
Conditions: in vivo, po, 0 mg/kg, 72 h, tissue Blood, route oral GAVAGE, dose level Control, time 3 day, vehicle 100 % WATER
assay.readout: HEMOGLOBIN (G/DL)

INSERT INTO results (molecule, reported_measurement) VALUES
  ('CC(Cl)(Cl)Cl [TRICHLOROETHANE]', 13.83),
  ('Cc1cn([C@H]2C=C[C@@H](CO)O2)c(=O)[nH]c1=O [STAVUDINE]', 13.33),
  ('CCN(CC)C(=S)SSC(=S)N(CC)CC', 14.28),
  ('C1CCN2C[C@@H]3C[C@@H](CN4CCCC[C@@H]34)[C@H]2C1 [SPARTEINE]', 13.83),
  ('NN [HYDRAZINE]', 13.32),
  ('C[N+](C)(C)CCOC(N)=O.[Cl-] [CARBACHOL]', 13.33),
  ('CCC1(c2ccccc2)C(=O)NC(=O)NC1=O [PHENOBARBITAL]', 13.17),
  ('Cc1cc(C(C)(C)C)c(O)c(C)c1CC1=NCCN1 [OXYMETAZOLINE]', 13.43),
  ('CN1C(=O)OC(C)(C)C1=O [TRIMETHADIONE]', 14.12);

Origin of values: ChEMBL document CHEMBL3885881
